Recorded protein stability index, one value per entry.
Measurement Protocol: protein stability index of a GFP-peptide fusion (GPS, HEK-293T) (PSI 1-6); higher = more stable;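 also: 24-mer peptide tiles fused after GFP, lentivirally expressed, FACS-sorted into six equal bins by GFP/DsRed ratio, decoded by Illumina sequencing, PSI is the read-weighted mean bin number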
Test Context: treatment: MLN4924 1 uM, 8 h; c terminus: a fixed tail appended
The answer should be a number; do not append a unit.

> print(dat)
                       biosequence  endpoint.result
1  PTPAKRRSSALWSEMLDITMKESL [NET1]             3.15

Could you now look at the following sequence, please?
input: What value of measured protein stability index is listed for YNSPQFKKTMSTFHNLVSLNLNYN [FBXO39] ?
output: 2.12

====

Measurement Protocol: protein stability index of a GFP-peptide fusion (GPS, HEK-293T) (PSI 1-6); higher = more stable
Test Context: treatment: MLN4924 1 uM, 8 h; c terminus: a fixed tail appended
Class 1: protein stability index at least 4. Class -1: protein stability index below 4.

> print(dat)
                          biosequence  group.label
1   PKCSCGQLAAVHLSKSRTDYQPTQ [RNF180]           -1
2  PLRNDVDKRGETTSASLLNAGLSH [SLC2A12]            1
3   QAVSAPGILNRPPAPTATVPAPQP [ZNF207]            1

input: State whether the measured protein stability index reaches 4, counting equality as reaching it, for GEARFLPKDLDPSLCTHLIYAFAG [CHIT1]
output: -1

input: Please do the same for GDTVVQGDLQETTVVTGLGPDTQD [PBXIP1] as well.
output: 1

input: Another: LESRIRDVHELFLQMAVLVEKQAD [STX11]
output: -1

input: Continue with EELERRFEDEVKRLGWQQQAELQE [MTUS2]
output: 1

input: And the next one, VLGFLIENFKGLAIPYLEHIIHVW [VPS39] ?
output: -1

input: Can you handle FLQEEAIDRNYVPGKSLAVSCPGW [SNX12] next?
output: -1

input: Follow-up entry: AKGSLGTQIGFADLMGVLTKGVRE [FEM1A]
output: -1

input: Same read-out for IPLYPLGCLAEAVSVIQSIPIFNE [HACD3] ?
output: -1

input: Entry to check: EGYTSFWNDCISSGLRGGILIELA [GOLPH3L]
output: -1

====

Measurement Protocol: protein stability index of a GFP-peptide fusion (GPS, HEK-293T) (PSI 1-6); higher = more stable
Test Context: treatment: DMSO; c terminus: a fixed tail appended
Listed sequences paired with reported protein stability index
Reply briefly: the number, and no unit.

> print(dat)
                          biosequence  endpoint.result
1     PYTRSIQILKDTKSITSAMNELQH [TPH1]             2.61
2     GSGPIQLWQFLLELLTDKSCQSFI [ETS1]             1.88
3  PLRNDVDKRGETTSASLLNAGLSH [SLC2A12]             4.55
4   DLVDLFDGTSQSTGGSADLFGGFA [CLINT1]             2.69
5    GKEQGQNLARQWNNCAFLESSAKS [RAP1B]              4.1

input: Fill in: protein stability index of AYQEVFKPENISLRNKLRELCVKL [SMG5] is ___
output: 2.24

input: Now this one: RRGELRHITKLKPWSLFDVLVEKY [SRPK2]
output: 2.4

input: What do you get for VGSGGATSGKLLLEADELCDDGGD [ZBTB22] ?
output: 5.56

input: Also need EANGLLPDDKLTLFCEVSVVQDSV [SPOPL] , thanks.
output: 2.88

====

Each item that follows carries a reported protein stability index.
Measurement Protocol: protein stability index of a GFP-peptide fusion (GPS, HEK-293T) (PSI 1-6); higher = more stable
Test Context: treatment: MLN4924 1 uM, 8 h; c terminus: a fixed tail appended
Note: the reply should be a number with no unit written.

These solved cases illustrate the format of a correct answer.
> print(dat)
                          biosequence  endpoint.result
1    DEEEEEEEEEEGRFYYSEDDHGDE [KCNA4]             5.55
2   RRRRMETIVFLDKEVFASRISNPS [PCMTD2]             2.77
3  YGYVYFRQVRDKTLKRGYFQKSLV [DENND6A]              2.1
4      SMPRINHGVLSAEGFLFVFGGQDE [GAN]             2.88
5    ITPQGVAMRAGVLADDHLIEVNGE [PDZK1]             4.78
6   IYSLRNKEFKSALCKIVRRTISLL [OR10K2]             2.17
7    LLKFDNSYSLWRSKSVYYRVYYTR [ACBD3]             2.49
8    TDGLQEVPLCSCRMETPKSREITT [EHMT1]             3.07

input: Fill in: protein stability index of AIVQQVPAPSRMQMPQGNPLLLSH [SNX8] is ___
output: 2.7

====

Measurement Protocol: protein stability index of a GFP-peptide fusion (GPS, HEK-293T) (PSI 1-6); higher = more stable
Test Context: treatment: MLN4924 1 uM, 8 h; c terminus: a fixed tail appended
Endpoint Label: protein stability index
Please state the value as a number alone, without comment.

Use the examples below as a reference point.
> print(dat)
                          biosequence           endpoint.label  endpoint.result
1   TVDLELELQIELLRETKRKYESVL [ARFIP2]  protein stability index             2.91
2   IRQEFDKLREFLRVEEQAILDAMA [TRIM35]  protein stability index             2.97
3  GGSAVCASRVKLQHLPAQEQWDRL [PLEKHN1]  protein stability index             3.06
4     LRALKLVITALKCHKYDRNIQVTG [ZER1]  protein stability index             3.16
5    IMNIEPAILVMHHSMKPHPAITAT [INTS3]  protein stability index             2.22

input: Which protein stability index is listed for VNPNGQKQQLVDAFLKLAKQRSVC [FAN1] ?
output: 2.92

input: # repeat for PGEKSHWGEGLHQLREALKILAER [EMID1]
output: 2.13

input: Another sequence to check: FGAAYVLEQASSHIGNSTQATVRD [ATL3]
output: 3.72

input: Moving on to SRHVTTRAALTYTSLEITILTSQP [M1AP]
output: 2.6

input: Next sequence: PVPPPSYFATFYSCTPRMNRRMVG [FAM189A2]
output: 2.43

input: What do you have for PSDFFIGAVIEVFGHRFIILDTDE [EFHC1] ?
output: 2.31

input: Try this sequence too: WATIEGLVELLQPFKQVAEMLSAS [ZBED1]
output: 2.94

input: And IQKNYECANFGDQGITMGCWDMYR [LOXL2] ?
output: 2.13

input: And the next one, LNYLRDGSVPLPESTRELGELLGE [KCTD13] ?
output: 4.64

input: Okay, and EHRHAAAALAAMNGRKIMGKEVKV [TIA1] ?
output: 3.85

input: Now try NLMSLLMAVRPSLPESGLLSVLQI [FANCE] .
output: 2.78

input: Similarly, EFPYRMNHILECEFYLLELMDCCL [CCNC] ?
output: 2.84

input: Further, for LMLGKTSISDLSEHVFDLILELYN [PDS5B] ?
output: 2.44

input: Ok, now GSTLGGSSYSSCYSFGSGGGYGSS [KRT17]
output: 2.98

input: Same lookup for AEEIRIKGKYNISSEDYRQLELVI [KCNK9] , please.
output: 2.05

input: Consider next the sequence AVKLYNSGDFRSSTEDMERALSEY [P3H4] in the same way.
output: 4.14

input: Try ELSEVLENQSSQAELKEAVEEPSS [CHGA] next.
output: 5.67

input: Check FDPDAKGLSDPGKIKRLRSQVQVS [HNF4A] too.
output: 4.06

input: Moving on to the next sequence: ADISMIGQFGVGFYSAYLVAEKVV [HSP90AB1]
output: 2.86

====

Each entry below carries its recorded protein stability index.
Measurement Protocol: protein stability index of a GFP-peptide fusion (GPS, HEK-293T) (PSI 1-6); higher = more stable
Test Context: treatment: DMSO; c terminus: a fixed tail appended
Lab note: record just the number, no unit beside it.

> print(dat)
                         biosequence  endpoint.result
1    EDSAESRPWRAGVLAEGDNASRSL [PSD2]             5.21
2   MRRMVATWMLEVCEEQKCEEEVFP [CCND2]              2.9
3   YINLLNYMDRFTVAGVLPDIEQFF [SPNS1]             2.93
4  DGRSLSKLNLCEDGPCHKRRASIC [SCARA5]             3.88

input: Please report the recorded protein stability index for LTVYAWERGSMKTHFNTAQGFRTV [OAS1] .
output: 2.72

input: Also TALVGLRQNLSKSWLDVQVSNTYV [TPD52L3] , if possible.
output: 2.39
